- Species on record: Rattus norvegicus
- Experiment Description: Open TG-GATES - Regimen: Daily Repeat
- Type: toxicity, organism-based, Sprague-Dawley
- Set-up: regimen Daily Repeat, gender Male, age 6 weeks
- Assay Context: in vivo, po, 100 mg/kg, […], tissue Blood, route gavage, dose level Low, time 28 day
Measurement Kind: MCH (pg)
Write it as a number; the unit pg goes unstated.

Look over these answered cases.
Molecule	MCH / pg
CCOC(=O)CCC(=O)O[C@H]1[C@H](O[C@@H]2[C@@H](C)[C@H](O[C@H]3C[C@@](C)(OC)[C@@H](O)[C@H](C)O3)[C@@H](C)C(=O)O[C@H](CC)[C@@](C)(O)[C@H](O)[C@@H](C)C(=O)[C@H](C)C[C@@]2(C)O)O[C@H](C)C[C@@H]1N(C)C [ERYTHROMYCIN ETHYLSUCCINATE]	19.6
NC(N)=Nc1nc(CSCCC(N)=NS(N)(=O)=O)cs1 [FAMOTIDINE]	19.4
COc1ccc2[nH]c([S+]([O-])Cc3ncc(C)c(OC)c3C)nc2c1 (stereo not given) [OMEPRAZOLE]	18.6

Would you kindly share the measured MCH for COC1=CC(=O)C[C@@H](C)[C@]12Oc1c(Cl)c(OC)cc(OC)c1C2=O [GRISEOFULVIN] ?
19.5

So what does the record say about MCH for CCOc1ccc(NC(=O)CC(C)O)cc1 (stereo not given) [BUCETIN] ?
19.5

* * *

- Species on record: Rattus norvegicus
- Experiment Description: Open TG-GATES - Regimen: Single
- Format: toxicity, organism-based, Sprague-Dawley
- Parameters: regimen Single, gender Male, age 6 weeks
- Assay Context: in vivo, po, 300 mg/kg, 24 h, tissue Plasma, route gavage, dose level Middle
Measurement Kind: Na (meq/L)
Numeric only. Scale: meq/L

Compound	Measurement Kind	Unit Label	Experimental Result
CCOC(=O)CCC(=O)O[C@H]1[C@H](O[C@@H]2[C@@H](C)[C@H](O[C@H]3C[C@@](C)(OC)[C@@H](O)[C@H](C)O3)[C@@H](C)C(=O)O[C@H](CC)[C@@](C)(O)[C@H](O)[C@@H](C)C(=O)[C@H](C)C[C@@]2(C)O)O[C@H](C)C[C@@H]1N(C)C [ERYTHROMYCIN ETHYLSUCCINATE]	Na	meq/L	142
NC(N)=Nc1nc(CSCCC(N)=NS(N)(=O)=O)cs1	Na	meq/L	140.6
COC1=CC(=O)C[C@@H](C)[C@]12Oc1c(Cl)c(OC)cc(OC)c1C2=O	Na	meq/L	141.4

Let's switch to this compound now.
Fill in the blank: the reported Na of COc1ccc2[nH]c([S+]([O-])Cc3ncc(C)c(OC)c3C)nc2c1 (centres undefined) is ____.
140.8

* * *

- Organism: Rattus norvegicus
- Experiment Description: Open TG-GATES - Regimen: Single
- Type: toxicity, organism-based, Sprague-Dawley
- Parameters: regimen Single, gender Male, age 6 weeks
- Assay Context: in vivo, po, 100 mg/kg, 9 h, tissue Plasma, route gavage, dose level High
Measurement Kind: AST

Illustrative cases are given below, each with its answer.
CN(C)CCCN1c2ccccc2CCc2ccccc21 63.6 IU/L
CC1=C(/C=C/C(C)=C/C=C/C(C)=C/CO)C(C)(C)CCC1 69.2 IU/L
CN(C)CCCN1c2ccccc2CCc2ccc(Cl)cc21 71.2 IU/L

Item under review: CN(C)CCN(Cc1cccs1)c1ccccn1 . Reported AST?
100.6 IU/L

* * *

- Species on record: Rattus norvegicus
- Experiment Description: Open TG-GATES - Regimen: Daily Repeat
- Format: toxicity, organism-based, Sprague-Dawley
- Parameters: regimen Daily Repeat, gender Male, age 6 weeks
- Assay Context: in vivo, po, 0 mg/kg, 72 h, tissue Plasma, route gavage, dose level Control, time 3 day
Reported Cl values for a set of molecules
Express the result in meq/L but write the number alone.

Molecule	Cl (meq/L)
CCCNC(=O)NS(=O)(=O)c1ccc(Cl)cc1 [CHLORPROPAMIDE]	105
NC(N)=Nc1nc(CSCCC(N)=NS(N)(=O)=O)cs1	103.2
O=C(CCCN1CCC(O)(c2ccc(Cl)cc2)CC1)c1ccc(F)cc1	105.8
CN(C)CCN(Cc1cccs1)c1ccccn1	106.4
NNC(=O)c1ccncc1	103.8

// next item, Cl requested
Look up Cl for this molecule: CCOc1ccc(NC(=O)CC(C)O)cc1 (stereo unspecified)
105.4

* * *

- Species on record: Rattus norvegicus
- Experiment Description: Open TG-GATES - Regimen: Daily Repeat
- Assay type: toxicity, organism-based, Sprague-Dawley
- Parameters: regimen Daily Repeat, gender Male, age 6 weeks
- Assay Context: in vivo, po, 0 mg/kg, […], tissue Blood, route gavage, dose level Control, time 14 day
Measurement Kind: WBC (x10_2/uL)
Quick reminder: number only, in x10_2/uL, skip the unit.

What value of WBC has been reported for the following compound? CCOC(=O)CCC(=O)O[C@H]1[C@H](O[C@@H]2[C@@H](C)[C@H](O[C@H]3C[C@@](C)(OC)[C@@H](O)[C@H](C)O3)[C@@H](C)C(=O)O[C@H](CC)[C@@](C)(O)[C@H](O)[C@@H](C)C(=O)[C@H](C)C[C@@]2(C)O)O[C@H](C)C[C@@H]1N(C)C [ERYTHROMYCIN ETHYLSUCCINATE]
110.8

May I ask what WBC has been recorded for CC1=C(/C=C/C(C)=C/C=C/C(C)=C/CO)C(C)(C)CCC1 [RETINOL] ?
121.8

Request the reported WBC associated with CN(C)CCN(Cc1cccs1)c1ccccn1
133.3

* * *

Items are presented alongside their recorded KIDNEY_TOTAL.
- Species: Rattus norvegicus
- Experiment Description: Open TG-GATES - Regimen: Single
- Format: toxicity, organism-based, Sprague-Dawley
- Parameters: regimen Single, gender Male, age 6 weeks
- Assay Context: in vivo, po, 1000 mg/kg, 6 h, tissue Kidney, route gavage, dose level High
Number in g, nothing else.

// solved cases for KIDNEY_TOTAL follow
Compound	KIDNEY_TOTAL (g)
COC1=CC(=O)C[C@@H](C)[C@]12Oc1c(Cl)c(OC)cc(OC)c1C2=O [GRISEOFULVIN]	2
CCOC(=O)CCC(=O)O[C@H]1[C@H](O[C@@H]2[C@@H](C)[C@H](O[C@H]3C[C@@](C)(OC)[C@@H](O)[C@H](C)O3)[C@@H](C)C(=O)O[C@H](CC)[C@@](C)(O)[C@H](O)[C@@H](C)C(=O)[C@H](C)C[C@@]2(C)O)O[C@H](C)C[C@@H]1N(C)C [ERYTHROMYCIN ETHYLSUCCINATE]	2.1
CC(C)OC(=O)C(C)(C)Oc1ccc(C(=O)c2ccc(Cl)cc2)cc1 [FENOFIBRATE]	1.6

Recorded KIDNEY_TOTAL of NC(N)=Nc1nc(CSCCC(N)=NS(N)(=O)=O)cs1 [FAMOTIDINE] , please.
1.9

Looking for the measured KIDNEY_TOTAL of COc1ccc2[nH]c([S+]([O-])Cc3ncc(C)c(OC)c3C)nc2c1 (stereo not given) [OMEPRAZOLE] , can you help?
2.1

* * *

- Organism: Rattus norvegicus
- Experiment Description: Open TG-GATES - Regimen: Daily Repeat
- Format: toxicity, organism-based, Sprague-Dawley
- Design: regimen Daily Repeat, gender Male, age 6 weeks
- Assay Context: in vivo, po, 0 mg/kg, […], tissue Plasma, route gavage, dose level Control, time 14 day
Measurement Kind: K (meq/L)
Answer with a number only, understood to be in meq/L.

Some solved cases for reference:
Compound	Experimental Result
CN1C(=O)CN=C(c2ccccc2)c2cc(Cl)ccc21	4.6
CC(C)OC(=O)C(C)(C)Oc1ccc(C(=O)c2ccc(Cl)cc2)cc1 [FENOFIBRATE]	4.3
NNC(=O)c1ccncc1	5.1

In the following, a different compound is considered.
Given the compound CN(C)CCCN1c2ccccc2CCc2ccccc21 , what is its reported K?
4.2

* * *

Property: TC; scope: individual compounds
- Species on record: Rattus norvegicus
- Experiment Description: Open TG-GATES - Regimen: Daily Repeat
- Type: toxicity, organism-based, Sprague-Dawley
- Parameters: regimen Daily Repeat, gender Male, age 6 weeks
- Assay Context: in vivo, po, 1000 mg/kg, 72 h, tissue Plasma, route gavage, dose level High, time 3 day
Use mg/dL as the unit, but write only the number.

Compound	Experimental Result
CC(C)OC(=O)C(C)(C)Oc1ccc(C(=O)c2ccc(Cl)cc2)cc1 [FENOFIBRATE]	57

Reported TC for COC1=CC(=O)C[C@@H](C)[C@]12Oc1c(Cl)c(OC)cc(OC)c1C2=O : what is it?
72.6

What value of TC has been recorded for this entry: CCOC(=O)CCC(=O)O[C@H]1[C@H](O[C@@H]2[C@@H](C)[C@H](O[C@H]3C[C@@](C)(OC)[C@@H](O)[C@H](C)O3)[C@@H](C)C(=O)O[C@H](CC)[C@@](C)(O)[C@H](O)[C@@H](C)C(=O)[C@H](C)C[C@@]2(C)O)O[C@H](C)C[C@@H]1N(C)C [ERYTHROMYCIN ETHYLSUCCINATE]
95.2

Reported TC, compound COc1ccc2[nH]c([S+]([O-])Cc3ncc(C)c(OC)c3C)nc2c1 (stereo unspecified) : ____
120.8

Item CCOc1ccc(NC(=O)CC(C)O)cc1 (stereo unspecified) has what recorded TC?
78.6

# get_value(readout='TC', item= NC(N)=Nc1nc(CSCCC(N)=NS(N)(=O)=O)cs1 )
77.6
